- experimental-system: Tyrosine-protein kinase Fer (Homo sapiens) (UniProt P16591)
- Sequence (P16591 whole entry, looked up): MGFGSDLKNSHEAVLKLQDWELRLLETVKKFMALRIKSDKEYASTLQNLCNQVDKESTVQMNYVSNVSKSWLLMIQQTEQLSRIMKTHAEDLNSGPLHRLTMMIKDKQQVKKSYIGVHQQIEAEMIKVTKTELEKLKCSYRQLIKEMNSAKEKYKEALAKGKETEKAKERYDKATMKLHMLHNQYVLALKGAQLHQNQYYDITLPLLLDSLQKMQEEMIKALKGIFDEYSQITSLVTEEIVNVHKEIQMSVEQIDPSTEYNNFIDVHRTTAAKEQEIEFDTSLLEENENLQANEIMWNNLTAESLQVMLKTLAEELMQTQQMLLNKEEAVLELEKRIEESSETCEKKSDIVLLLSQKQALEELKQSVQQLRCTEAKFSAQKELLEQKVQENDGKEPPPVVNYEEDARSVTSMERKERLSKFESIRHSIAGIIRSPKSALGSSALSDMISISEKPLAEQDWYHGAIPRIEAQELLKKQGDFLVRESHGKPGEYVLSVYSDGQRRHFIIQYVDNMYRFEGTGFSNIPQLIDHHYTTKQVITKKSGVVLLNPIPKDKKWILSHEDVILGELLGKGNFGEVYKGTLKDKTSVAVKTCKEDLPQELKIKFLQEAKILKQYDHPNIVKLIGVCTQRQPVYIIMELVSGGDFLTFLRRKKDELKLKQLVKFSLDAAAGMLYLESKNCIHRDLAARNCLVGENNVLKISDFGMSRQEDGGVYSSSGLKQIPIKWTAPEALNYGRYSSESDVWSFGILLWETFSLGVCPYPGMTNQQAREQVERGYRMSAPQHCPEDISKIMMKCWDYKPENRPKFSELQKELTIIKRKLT
- measurement-context: at 1 µM
- Description: GSK_PKIS: FER mean inhibition at 1 uM [Nanosyn]
quantity-measured: inhibition (%)
Response body: numeric value in %, unit text excluded.

Suppose we examine the molecule `CCn1c(-c2nonc2N)nc2c(C#CC(C)(C)O)ncc(OC[C@@H]3CCCN3)c21` ; what inhibition value has been reported?
0.7

Recorded inhibition for `CCn1c(-c2nonc2N)nc2c(C#CC(C)(C)O)nc(O[C@@H](CN)c3ccccc3)cc21` , please?
11.6

Look at this molecule and give its reported inhibition. `COc1cccc(COc2cc(-n3cnc4ccccc43)sc2C(N)=O)c1`
3.72

What measured inhibition goes with `Nc1nonc1-c1nc2cnccc2n1C1CCCCC1` ?
1.83

Entry `COc1cccc(-n2ncc3c(N/N=C/c4ccncc4)ncnc32)c1` has what inhibition?
11.7

// query inhibition value for entry `Cc1cc(-c2ccco2)cc(C)c1/C=C/c1cncc(-c2nn[nH]n2)c1`
7.85

Would you mind telling me what inhibition value was observed for `COc1cc2c(cc1Nc1nc(Nc3ccsc3C(N)=O)c3cc[nH]c3n1)N(C(=O)CN(C)C)CCC2` ?
81.6

----------
- experimental-system: Aurora kinase C (Homo sapiens);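 further: values are the mean inhibition of Aurora-C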
- measurement-context: at 0.1 µM
Assign inhibition to each entry below.
Give a bare numeral; the unit % is implied.

Recorded inhibition for `NS(=O)(=O)c1ccc(N/C=C2\C(=O)Nc3ccc4ncsc4c32)cc1` , please?
22.5

What value of measured inhibition is listed for `COc1cccc(-n2ncc3c(N/N=C/c4ccncc4)ncnc32)c1` ?
7.33

Consider the molecule `COc1cc2c(cc1Nc1nc(Nc3ccsc3C(N)=O)c3cc[nH]c3n1)N(C(=O)CN(C)C)CCC2` and give its measured inhibition.
1.46

Query (molecule): `COc1cc(C=NNc2ncnc3c2cnn3Cc2ccccc2)ccc1O` ; field requested: inhibition
1.25

# get_value(readout='inhibition', item= `CCn1c(-c2nonc2N)nc2c(C#CCN)ncc(OCCCN)c21` )
3.54

Name the recorded inhibition for `Fc1ccc(-c2ncn(C3CCNCC3)c2-c2ccnc(Oc3ccccc3)n2)cc1` .
-4.42

May I ask what inhibition has been recorded for `NC(=O)c1sc(-n2cnc3cc(C(F)(F)F)ccc32)cc1OCc1ccccc1Br` ?
1.36

What measured inhibition goes with `NS(=O)(=O)c1ccc(-c2ccc3c(NC(=O)C4CC4)n[nH]c3c2)cc1` ?
1.15

----------
Assign inhibition to each entry below.
- experimental-system: Fibroblast growth factor receptor 1 (Homo sapiens) (UniProt P11362)
- Sequence (P11362 22-822 limits assumed): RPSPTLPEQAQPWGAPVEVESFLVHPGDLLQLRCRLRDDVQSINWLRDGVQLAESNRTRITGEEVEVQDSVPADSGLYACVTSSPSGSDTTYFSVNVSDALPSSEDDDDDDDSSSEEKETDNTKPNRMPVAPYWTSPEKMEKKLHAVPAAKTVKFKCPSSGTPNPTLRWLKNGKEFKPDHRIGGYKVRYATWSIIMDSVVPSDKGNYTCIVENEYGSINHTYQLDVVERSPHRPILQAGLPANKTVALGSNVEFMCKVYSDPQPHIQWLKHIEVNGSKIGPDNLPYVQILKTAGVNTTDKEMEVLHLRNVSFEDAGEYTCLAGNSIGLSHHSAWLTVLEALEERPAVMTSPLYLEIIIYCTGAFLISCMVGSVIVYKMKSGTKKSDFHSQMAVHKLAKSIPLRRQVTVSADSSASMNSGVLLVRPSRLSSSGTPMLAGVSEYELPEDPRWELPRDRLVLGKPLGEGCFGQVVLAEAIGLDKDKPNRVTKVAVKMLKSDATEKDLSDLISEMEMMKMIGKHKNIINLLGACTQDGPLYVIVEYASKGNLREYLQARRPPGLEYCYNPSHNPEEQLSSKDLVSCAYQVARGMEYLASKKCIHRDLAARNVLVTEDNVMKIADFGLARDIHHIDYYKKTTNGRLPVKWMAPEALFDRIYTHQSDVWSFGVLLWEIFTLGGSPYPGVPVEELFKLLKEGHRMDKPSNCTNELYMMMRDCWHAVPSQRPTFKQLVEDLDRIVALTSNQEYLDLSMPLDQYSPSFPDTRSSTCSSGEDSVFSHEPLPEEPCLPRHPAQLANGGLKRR
- measurement-context: at 1 µM
Numbers only here, please. The scale is %.

Short answer please: inhibition, Fibroblast growth factor receptor 1 (Homo sapiens) (UniProt P11362), entry `Cc1cc(-c2ccco2)cc(C)c1/C=C/c1cncc(-c2nn[nH]n2)c1`
2.5

Please tell me: inhibition of `NS(=O)(=O)c1ccc(N/C=C2\C(=O)Nc3ccc4ncsc4c32)cc1` , system Fibroblast growth factor receptor 1 (Homo sapiens) (UniProt P11362)?
32.8

Reported inhibition for Fibroblast growth factor receptor 1 (Homo sapiens) (UniProt P11362), given `COc1cccc(-n2ncc3c(N/N=C/c4ccncc4)ncnc32)c1` ?
8.02

Give the reported inhibition for `NC(=O)c1sc(-n2cnc3cc(C(F)(F)F)ccc32)cc1OCc1ccccc1Br` (system: Fibroblast growth factor receptor 1 (Homo sapiens) (UniProt P11362)).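 Further: values are the mean percent inhibition of FGFR1 across replicate measurements.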
1.74

Item `COc1cccc(COc2cc(-n3cnc4ccccc43)sc2C(N)=O)c1` with Fibroblast growth factor receptor 1 (Homo sapiens) (UniProt P11362) - inhibition?
-0.23

Notebook entry, Fibroblast growth factor receptor 1 (Homo sapiens) (UniProt P11362) assay: inhibition of `CCn1c(-c2nonc2N)nc2c(C#CC(C)(C)O)nc(O[C@@H](CN)c3ccccc3)cc21` = ?
6.16

Kindly state the measured inhibition obtained for `COc1cc(C=NNc2ncnc3c2cnn3Cc2ccccc2)ccc1O` with Fibroblast growth factor receptor 1 (Homo sapiens) (UniProt P11362).
-5.25

----------
- experimental-system: Protein kinase C beta type (Homo sapiens)
- measurement-context: at 1 µM
- Description: GSK_PKIS: PKC-beta1 (splice variant) mean inhibition at 1 uM [Nanosyn]
Please provide measured inhibition for the entries that follow.
Just the number in %, nothing appended.

Please tell me: inhibition of `Nc1nonc1-c1nc2cnccc2n1C1CCCCC1` , system Protein kinase C beta type (Homo sapiens)?
65.3

Can you look up inhibition on Protein kinase C beta type (Homo sapiens) for `CCn1c(-c2nonc2N)nc2c(C#CC(C)(C)O)ncc(OC[C@@H]3CCCN3)c21` ?
61.3

What is its inhibition for Protein kinase C beta type (Homo sapiens)? Entry: `Fc1ccc(-c2ncn(C3CCNCC3)c2-c2ccnc(Oc3ccccc3)n2)cc1`
8.43

Form field - read-out: inhibition; system: Protein kinase C beta type (Homo sapiens); submitted item: `COc1cccc(COc2cc(-n3cnc4ccccc43)sc2C(N)=O)c1`
0.94

Recall the recorded inhibition for `CCn1c(-c2nonc2N)nc2c(C#CC(C)(C)O)nc(O[C@@H](CN)c3ccccc3)cc21` with Protein kinase C beta type (Homo sapiens) and state it.
71.4

Field: inhibition (Protein kinase C beta type (Homo sapiens)). Entry: `COc1cc2c(cc1Nc1nc(Nc3ccsc3C(N)=O)c3cc[nH]c3n1)N(C(=O)CN(C)C)CCC2`
1.94

# query: inhibition | item `NC(=O)c1sc(-n2cnc3cc(C(F)(F)F)ccc32)cc1OCc1ccccc1Br` | system: Protein kinase C beta type (Homo sapiens);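 further: mean inhibition value, enzyme form tested was the PKC-beta1 splice variant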
-1.32

----------
- experimental-system: Serine/threonine-protein kinase MARK2 (Homo sapiens) (UniProt Q7KZI7);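 further: mean percent inhibition of PAR-1Balpha kinase activity, reported from the GSK PKIS screen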
- Sequence (Q7KZI7 whole entry): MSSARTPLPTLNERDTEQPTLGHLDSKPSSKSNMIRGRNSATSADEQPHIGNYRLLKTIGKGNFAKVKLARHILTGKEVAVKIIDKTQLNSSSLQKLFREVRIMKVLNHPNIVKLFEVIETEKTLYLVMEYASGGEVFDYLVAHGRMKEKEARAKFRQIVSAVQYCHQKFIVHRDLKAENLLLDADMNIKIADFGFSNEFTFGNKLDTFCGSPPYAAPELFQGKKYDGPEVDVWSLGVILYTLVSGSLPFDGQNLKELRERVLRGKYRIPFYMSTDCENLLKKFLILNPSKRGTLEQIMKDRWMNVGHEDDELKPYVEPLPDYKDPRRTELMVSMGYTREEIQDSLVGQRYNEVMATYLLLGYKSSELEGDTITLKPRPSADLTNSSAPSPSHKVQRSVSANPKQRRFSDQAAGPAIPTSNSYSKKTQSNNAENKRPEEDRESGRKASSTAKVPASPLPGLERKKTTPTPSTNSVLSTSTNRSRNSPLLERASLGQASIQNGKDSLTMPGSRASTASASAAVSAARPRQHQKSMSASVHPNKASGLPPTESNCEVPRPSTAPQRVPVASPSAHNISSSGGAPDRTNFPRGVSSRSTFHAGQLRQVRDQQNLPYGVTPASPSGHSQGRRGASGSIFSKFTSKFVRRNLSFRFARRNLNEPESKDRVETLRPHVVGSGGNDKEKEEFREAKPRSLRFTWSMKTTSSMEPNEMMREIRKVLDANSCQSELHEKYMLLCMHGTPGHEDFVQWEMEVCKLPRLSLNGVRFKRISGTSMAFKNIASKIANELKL
- measurement-context: at 0.1 µM
Consider the following molecules; for each one, report its inhibition.
Kindly answer with a numeric value in %, unit omitted.

Any idea what its inhibition is? The molecule is `CCn1c(-c2nonc2N)nc2c(C#CC(C)(C)O)ncc(OCC3CCNCC3)c21`
11.3

Suppose we examine the molecule `NS(=O)(=O)c1ccc(N/C=C2\C(=O)Nc3ccc4ncsc4c32)cc1` ; what inhibition value has been reported?
6.29

Data request, read-out inhibition, for `COc1cccc(COc2cc(-n3cnc4ccccc43)sc2C(N)=O)c1`
-2.23

Which inhibition reading was recorded for the molecule `NC(=O)c1sc(-n2cnc3cc(C(F)(F)F)ccc32)cc1OCc1ccccc1Br` ?
-0.02

Consider the molecule shown here: `Nc1nonc1-c1nc2cnccc2n1C1CCCCC1` What is its recorded inhibition?
3.67

For the molecule `Cc1cc(-c2ccco2)cc(C)c1/C=C/c1cncc(-c2nn[nH]n2)c1` , what inhibition is on record?
1.91

Entry `CCn1c(-c2nonc2N)nc2c(C#CCN)ncc(OCCCN)c21` has what inhibition?
7.01

----------
- experimental-system: Serine/threonine-protein kinase PAK 5 (Homo sapiens) (UniProt Q9P286)
- Sequence (Q9P286 whole entry, looked up): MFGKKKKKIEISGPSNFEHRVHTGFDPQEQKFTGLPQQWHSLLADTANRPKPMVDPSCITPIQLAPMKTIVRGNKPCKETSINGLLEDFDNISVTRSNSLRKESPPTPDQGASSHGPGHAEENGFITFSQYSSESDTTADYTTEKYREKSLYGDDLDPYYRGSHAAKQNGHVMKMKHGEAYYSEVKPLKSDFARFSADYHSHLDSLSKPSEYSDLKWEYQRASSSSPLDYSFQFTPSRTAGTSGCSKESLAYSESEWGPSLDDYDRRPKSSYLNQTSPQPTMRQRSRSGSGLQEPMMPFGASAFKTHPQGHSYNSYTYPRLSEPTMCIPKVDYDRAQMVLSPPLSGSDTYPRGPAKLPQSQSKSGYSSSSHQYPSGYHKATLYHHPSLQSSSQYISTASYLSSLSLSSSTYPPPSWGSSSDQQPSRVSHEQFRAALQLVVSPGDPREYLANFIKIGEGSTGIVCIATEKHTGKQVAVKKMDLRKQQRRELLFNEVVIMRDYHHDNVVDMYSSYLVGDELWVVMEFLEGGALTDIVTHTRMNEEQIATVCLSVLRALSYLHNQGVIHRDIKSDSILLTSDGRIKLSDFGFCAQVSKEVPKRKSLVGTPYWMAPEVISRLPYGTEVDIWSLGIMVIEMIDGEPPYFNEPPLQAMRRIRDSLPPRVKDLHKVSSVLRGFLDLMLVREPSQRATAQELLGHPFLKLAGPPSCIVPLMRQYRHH
- measurement-context: at 0.1 µM
quantity-measured: inhibition (%)
Write the answer as a number in %, unit excluded.

Field: inhibition (Serine/threonine-protein kinase PAK 5 (Homo sapiens) (UniProt Q9P286)). Entry: `CCn1c(-c2nonc2N)nc2c(C#CC(C)(C)O)nc(O[C@@H](CN)c3ccccc3)cc21`
49.1

Lookup: inhibition / Serine/threonine-protein kinase PAK 5 (Homo sapiens) (UniProt Q9P286) / `CCn1c(-c2nonc2N)nc2c(C#CCN)ncc(OCCCN)c21`
3.08

Give Serine/threonine-protein kinase PAK 5 (Homo sapiens) (UniProt Q9P286) inhibition for `COc1cc2c(cc1Nc1nc(Nc3ccsc3C(N)=O)c3cc[nH]c3n1)N(C(=O)CN(C)C)CCC2`
-1

For the record `COc1cccc(-n2ncc3c(N/N=C/c4ccncc4)ncnc32)c1` , what value of inhibition is listed for Serine/threonine-protein kinase PAK 5 (Homo sapiens) (UniProt Q9P286)?
0.19

Missing value: inhibition, Serine/threonine-protein kinase PAK 5 (Homo sapiens) (UniProt Q9P286), entry `CCn1c(-c2nonc2N)nc2c(C#CC(C)(C)O)ncc(OC[C@@H]3CCCN3)c21` . Fill in?
12.6

Lab request: please report inhibition under test system Serine/threonine-protein kinase PAK 5 (Homo sapiens) (UniProt Q9P286) for `Fc1ccc(-c2ncn(C3CCNCC3)c2-c2ccnc(Oc3ccccc3)n2)cc1`
2.66

API: value(readout= inhibition, system= Serine/threonine-protein kinase PAK 5 (Homo sapiens) (UniProt Q9P286), query= `NS(=O)(=O)c1ccc(-c2ccc3c(NC(=O)C4CC4)n[nH]c3c2)cc1` );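 further: values are mean percent inhibition of PAK5 from a kinase inhibitor set screen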
1.07

----------
- experimental-system: Activated CDC42 kinase 1 (Homo sapiens)
- measurement-context: at 1 µM
- Description: GSK_PKIS: TNK2 mean inhibition at 1 uM [Nanosyn]
quantity-measured: inhibition (%)
Give your result in % as a bare value.

Reported inhibition for `Nc1nonc1-c1nc2cnccc2n1C1CCCCC1` : what is it?
-1.55

// query inhibition value for entry `COc1cc(C=NNc2ncnc3c2cnn3Cc2ccccc2)ccc1O`
0.03

# lookup: inhibition of `CCn1c(-c2nonc2N)nc2c(C#CC(C)(C)O)nc(O[C@@H](CN)c3ccccc3)cc21`
-1.74

Suppose we examine the molecule `COc1cc2c(cc1Nc1nc(Nc3ccsc3C(N)=O)c3cc[nH]c3n1)N(C(=O)CN(C)C)CCC2` ; what inhibition value has been reported?
13.2

Any idea what its inhibition is? The molecule is `COc1cccc(-n2ncc3c(N/N=C/c4ccncc4)ncnc32)c1`
9.3

# lookup: inhibition of `NS(=O)(=O)c1ccc(-c2ccc3c(NC(=O)C4CC4)n[nH]c3c2)cc1`
1.95
